# TEST_NAME: in vivo
# CONDITION_DETAILS: male, rat, in vivo, sc, 3 mg/kg
As shown below, each of these molecules has a reported AUC(0-inf) value.
REPORTED_ENDPOINT: AUC(0-inf) (ng·h/mL)

                                   molecule  measured_result
0  CN1[C@@H](CC(=O)c2ccccc2)CCC[C@H]1C[C@H](O)c1ccccc1              191
1  CN1[C@H](CC(=O)c2ccccc2)CCC[C@H]1C[C@H](O)c1ccccc1 (single isomer, unassigned; epimer 2) [Epimer]              109

###

# TEST_NAME: in vivo
# CONDITION_DETAILS: male, rat, in vivo, iv, 2 mg/kg
As shown below, each of these molecules has a reported AUC(0-t) value.
REPORTED_ENDPOINT: AUC(0-t)

>>> print(df.to_string())
                                   molecule  measured_result
0  CN1[C@@H](CC(=O)c2ccccc2)CCC[C@H]1C[C@H](O)c1ccccc1      134 ng·h/mL
1  CN1[C@H](CC(=O)c2ccccc2)CCC[C@H]1C[C@H](O)c1ccccc1 (single isomer, unassigned; epimer 2) [Epimer]     68.7 ng·h/mL

Measured values drawn from patent US20090118331A1 for this set.
